TARGET DESC: T1, human CD3e/d complex on cells transiently transfected with pOPT-CD3e/d-hum-mix (human, UniProt P07766 23-126; P04234 22-171)
T1 construct: Tagged screening constructs
T1 sequence (P07766 23-126 limits assumed, chain 1 of 2): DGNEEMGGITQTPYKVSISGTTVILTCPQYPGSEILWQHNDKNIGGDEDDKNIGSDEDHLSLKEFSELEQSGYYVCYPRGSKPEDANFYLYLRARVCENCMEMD
T1 sequence (P04234 22-171 limits assumed, chain 2 of 2): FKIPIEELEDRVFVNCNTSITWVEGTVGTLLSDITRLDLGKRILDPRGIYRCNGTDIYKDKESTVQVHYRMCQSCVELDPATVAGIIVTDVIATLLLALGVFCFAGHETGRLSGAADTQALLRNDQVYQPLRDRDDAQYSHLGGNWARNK
METHOD NOTES: CELISA, hybridoma supernatant
Measured Rfu, listed per entry for reference.
RESULT TYPE: Rfu (rfu)

BINDER: BLX-3G8 (antibody, V domains shown, OmniRat hybridoma supernatant: human V regions on rat constant regions; also called V regions cloned as CD3B317 (CD3H223/CD3L124)) VH: QVQLQQSGPGLVKPSQTLSLTCAISGDSVFNNNAAWTWIRQSPSRGLEWLGRTYYRSKWLYDYAVSVKSRITVNPDTSRNQFTLQLKSVTPEDTALYYCSRGYSSSFDYWGQGTLVTVSS VL: QSALTQPASVSGSPGQSITISCTGTSSNIGTYKFVSWYQQHPDKAPKVLLYEVSKRPSGVSSRFSGSKSGNTASLTISGLQAEDQADYHCCSYAGSGTLLFGGGTKLTVL
VALUE REPORTED: 759

BINDER: BLW-2E6 (antibody, V domains shown, OmniRat hybridoma supernatant: human V regions on rat constant regions; also called V regions cloned as CD3B312 (CD3H219/CD3L124)) VH: QVQLQQSGPRLVRPSQTLSLTCAISGDSVFNNNAAWSWIRQSPSRGLEWLGRTYYRSKWLYDYAVSVKSRITVNPDTSRNQFTLQLNSVTPEDTALYYCARGYSSSFDYWGQGTLVTVSS VL: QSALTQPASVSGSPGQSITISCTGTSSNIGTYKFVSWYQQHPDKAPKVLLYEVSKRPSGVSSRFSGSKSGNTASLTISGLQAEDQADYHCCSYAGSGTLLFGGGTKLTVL
VALUE REPORTED: 231

BINDER: BLW-3B4 (antibody, V domains shown, OmniRat hybridoma supernatant: human V regions on rat constant regions; also called V regions cloned as CD3B313 (CD3H218/CD3L125)) VH: QVQLQQSGPGLVKPSQTLSLTCAISGDSVFNNNAAWSWIRQSPSRGLEWLGRTYYRSKWLYDYAVSVKSRITVNPDTSRNQFTLQLNSVTPEDTALYYCVRGYSSSFDYWGQGTLVTVSS VL: QSALTQPASVSGSPGQSITISCTGTSRDIGTYKFVSWYQQHPDKAPKVLLYEVSKRPSGVSSRFSGSKSGNTASLTISGLQAEDQADYHCCSYAGSGTLLFGGGTKLTVL
VALUE REPORTED: 867

BINDER: BLX-2E9 (antibody, V domains shown, OmniRat hybridoma supernatant: human V regions on rat constant regions; also called V regions cloned as CD3B315 (CD3H221/CD3L124)) VH: QVQLQQSGPGLVKPSQTLSLTCAISGDSVFNNNGAWSWIRQSPSRGLEWLGRTYYRSKWLYDYAVSVKSRITVNPDTSRNQFTLQLNSVTPEDTALYYCARGYSSSFDYWGQGTLVTVSS VL: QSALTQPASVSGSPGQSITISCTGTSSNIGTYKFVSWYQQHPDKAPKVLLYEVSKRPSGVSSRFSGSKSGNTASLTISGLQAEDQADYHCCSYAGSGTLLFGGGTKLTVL
VALUE REPORTED: 867

BINDER: BLW-2B4 (antibody, V domains shown, OmniRat hybridoma supernatant: human V regions on rat constant regions; also called V regions cloned as CD3B311 (CD3H218/CD3L123)) VH: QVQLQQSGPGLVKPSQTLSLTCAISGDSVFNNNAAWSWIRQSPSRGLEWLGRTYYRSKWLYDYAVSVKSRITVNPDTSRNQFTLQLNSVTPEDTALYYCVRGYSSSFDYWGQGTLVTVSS VL: QSALTQPASVSGSPGQSITISCTGTSRDIGTYKFVSWYQQHPDKAPKVLLYEVNKRPSGVSSRFSGSKSGNTASLTISGLQAEDQADYHCCSYAGSGTLLFGGGTKLTVL
VALUE REPORTED: 689

BINDER: BLX-3F4 (antibody, V domains shown, OmniRat hybridoma supernatant: human V regions on rat constant regions; also called V regions cloned as CD3B316 (CD3H222/CD3L124)) VH: QVRLQQSGPGLVKPSQTLSLTCAISGDSVFNNNAAWSWIRQSPSRGLEWLGRTYYRSKWLYDYAVTVKSRITVNPDTSRNQFTLQLTSVTPEDTALYYCARGYSSSFDYWGQGTLVTVSS VL: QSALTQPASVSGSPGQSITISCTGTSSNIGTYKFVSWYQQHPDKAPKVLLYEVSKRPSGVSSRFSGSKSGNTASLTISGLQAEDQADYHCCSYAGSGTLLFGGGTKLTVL
VALUE REPORTED: 896

BINDER: BLX-1F8 (antibody, V domains shown, OmniRat hybridoma supernatant: human V regions on rat constant regions; also called V regions cloned as CD3B314 (CD3H220/CD3L126)) VH: QVQLQQSGPGLVKPSQTLSLTCAISGDSVFNNNAAWSWIRQSPSRGLEWLGRTYYRSKWLYDYAVSVKSRITVNPDTSRNQFTLQLKSVTPEDTALYYCSRGYSSSFDYWGQGTLVTVSS VL: QSALTQPASVSGSPGQSITISCTGTSSDIGTYKFVSWYQQHPDKAPKVLLYEVSKRPSGVSSRFSGSKSDNTASLTISGLQAEDQADYHCCSYAGSGTLLFGGGTKLTVL
VALUE REPORTED: 689
